System: MALME-3M melanoma
Test: NCI-60 one-dose screen, 48 h
Conditions: 10 µM
This is part of a sample that, as a whole, favours compounds with a hit. Of some 83,000 tested, about 20% had one in any assay. Activity calls are given as the source filed them. The calls were made as follows: active = growth percent below 10; inactive = the rest.
Answer with one of the outcomes active, inactive

As a guide, the following entries are already answered.
In [3]: df
Out[3]:
                               entry_smiles  assigned_label
0                                 CCCCCCCCO        inactive
1                      CCC(=O)Oc1ccc(OC)cc1        inactive
2  O=[N+]([O-])c1ccc(-c2noc(-c3cccs3)n2)cc1        inactive
3                          OCc1cccc2ccccc12        inactive

Query block: # fetch the recorded call for CN(C)CCN(C)CC(C)(C)C(=O)/C=C/c1ccc(Cl)cc1 here
Result block: active

* * *

System: TK-10 renal
Assay: NCI-60 one-dose screen, 48 h (100 = growth as untreated, 0 = no growth, -100 = all killed)
Settings: 10 µM unless noted
This is part of a sample that, as a whole, favours compounds with a hit. Of some 83,000 tested, about 20% had one in any assay.
QUANTITY: growth (%)
Entry rule: numbers only, all in %.

Some solved cases for reference:
>>> df
                                   molecule  study_target  quantity  endpoint_result
0  CC(=O)OCC(=O)[C@@]1(O)CC[C@H]2[C@@H]3CC[C@@H]4C[C@H](O)CC[C@]4(C)[C@H]3C(=O)C[C@@]21C   TK-10 renal    growth              110
1                CN(c1ccccc1)c1ncnc2c1ncn2C   TK-10 renal    growth              105
2                 Cc1cc(N)ccc1-c1ccc(N)cc1C   TK-10 renal    growth              111

Query block: Param item = NC(=S)CN1CCOCC1 ; retrieve measured growth.
Result block: 99.3

Query block: Entry under review: CC(C)CCOC(=O)c1ccccc1 . Reported growth?
Result block: 101

Query block: Name the reported growth value associated with the molecule CC(=O)OC1CC2C(C)(C)OC3CC(=O)OCC32C2CCC3(C)C(=CCC3c3ccoc3)C12C (stereo not drawn)
Result block: 107

Query block: Give the measured growth of CN(C)c1ccc(S(=O)(=O)O)cc1 .
Result block: 89.2

Query block: Using the record for COC(=O)Nc1cccc(Cl)c1OC , report its growth.
Result block: 120

Query block: Requested field: growth. Item: CC(C(=O)O)(C1CCCCC1)C1(O)CCCCC1 (stereo not drawn)
Result block: 91.1

Query block: For S=c1sc2ccccc2n1CN1CCCCC1 , what is its reported growth?
Result block: 93.7

Query block: Look at this molecule and give its reported growth. COc1cc(/C=C(\C#N)C(=O)c2ccccc2)ccc1OCc1ccccc1
Result block: 109

* * *

Each entry below carries its recorded growth.
System: MDA-MB-231 breast
Test: NCI-60 one-dose screen, 48 h (100 = growth as untreated, 0 = no growth, -100 = all killed)
Conditions: 10 µM
Compounds without any hit were thinned out: in the full panel of roughly 83,000, 20% have a hit.
Your answer should be a plain number; it is taken to be in %.

>>> print(df.to_string())
          compound       study_target  endpoint_result
0  O=C(O)COCC(=O)O  MDA-MB-231 breast              106

Query block: What value of growth has been recorded for this entry: Cc1cc(C)cc(NCCC#N)c1
Result block: 106

Query block: Tell me the measured growth of Nc1ccc(NC(=O)c2cccc(N)c2)cc1 , please.
Result block: 97.1

Query block: Can you look up the measured growth of COc1cccc(/C=N/NC(=S)NC2CC3CCC2C3)c1O (centres undefined) for me?
Result block: 55.4

Query block: Fill blank: measured growth of the compound O=C1OC[C@H]2[C@H](c3ccc(O)c(O)c3)c3cc(O)c(O)cc3C[C@H]12 is ____.
Result block: 129

Query block: Form field: reported growth of COc1cc(OC)c2ccc(=O)oc2c1
Result block: 93.4

Query block: Can you share its growth? I mean this compound: C#CC(C)(O)c1ccc(Cl)cc1 (centres undefined)
Result block: 102
